fold change of Cadaverine concentration: recorded values
test system: Escherichia coli IAI1; test: fold change of Cadaverine concentration vs plate DMSO controls (fold change (ratio)); higher = more amine produced, active = hit call of the paper (significant change in both replicates, either direction); details: incubation time: 27 h, anaerobic, 37 °C
Could you respond with only the numeric value?

Take a look at these entries with their results.
C[N+]1(CCCCC[N+]2(C)CCCC2)CCCC1 [Pentolinium bitartrate] (20 µM)	0.966
CCCCC(O)c1ccccc1 (stereo not given) [Fenipentol] (20 µM)	1.03
NNC(=O)c1ccncc1 [Isoniazid] (20 µM)	1.01
O=C(CCNNC(=O)c1ccncc1)NCc1ccccc1 [Nialamide] (20 µM)	1.03

fold change of Cadaverine concentration in this record for CC(C)(C)NCC(O)c1ccc(O)c(CO)c1 (stereo not given) [Salbutamol] (20 µM) : 1
